Where do the numbers come from? From patent US20240124504A1.

# TEST TARGET: CDK9/cyclinT1 complex (Homo sapiens, UniProt P50750)
# Sequence (P50750 whole entry, species assumed): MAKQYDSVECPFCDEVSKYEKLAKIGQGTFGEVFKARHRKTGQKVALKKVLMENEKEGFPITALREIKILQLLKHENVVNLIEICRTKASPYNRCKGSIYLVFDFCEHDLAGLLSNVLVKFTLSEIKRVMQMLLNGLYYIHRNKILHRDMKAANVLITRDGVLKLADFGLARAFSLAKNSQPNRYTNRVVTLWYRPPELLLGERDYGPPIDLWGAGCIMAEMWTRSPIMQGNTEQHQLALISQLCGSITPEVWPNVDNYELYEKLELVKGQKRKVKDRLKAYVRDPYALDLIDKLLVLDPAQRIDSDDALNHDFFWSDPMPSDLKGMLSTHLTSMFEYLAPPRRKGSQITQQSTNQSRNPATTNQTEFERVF
# Sequence (O60563 whole entry partner, species assumed): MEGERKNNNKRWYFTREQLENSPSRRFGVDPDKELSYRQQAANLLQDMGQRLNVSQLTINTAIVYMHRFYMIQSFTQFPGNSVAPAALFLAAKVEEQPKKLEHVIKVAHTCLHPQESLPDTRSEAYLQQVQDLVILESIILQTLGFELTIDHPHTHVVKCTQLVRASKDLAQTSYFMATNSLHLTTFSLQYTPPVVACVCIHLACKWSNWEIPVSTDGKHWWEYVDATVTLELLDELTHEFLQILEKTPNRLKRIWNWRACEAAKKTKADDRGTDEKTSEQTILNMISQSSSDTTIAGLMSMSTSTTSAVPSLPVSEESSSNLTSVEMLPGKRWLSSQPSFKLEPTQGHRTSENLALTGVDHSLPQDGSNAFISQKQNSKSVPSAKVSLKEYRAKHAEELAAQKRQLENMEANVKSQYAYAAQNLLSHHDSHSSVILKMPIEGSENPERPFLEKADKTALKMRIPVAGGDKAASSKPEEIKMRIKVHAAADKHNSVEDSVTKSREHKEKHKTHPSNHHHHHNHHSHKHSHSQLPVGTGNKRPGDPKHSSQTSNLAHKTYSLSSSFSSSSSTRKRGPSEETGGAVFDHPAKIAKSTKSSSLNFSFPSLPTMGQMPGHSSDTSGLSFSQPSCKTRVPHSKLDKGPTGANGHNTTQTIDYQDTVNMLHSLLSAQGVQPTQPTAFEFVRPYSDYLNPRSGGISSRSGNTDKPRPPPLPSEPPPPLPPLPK
# METHOD DESCRIPTION: In-vitro enzymatic inhibitory activity testing, CDK9 inhibition assay (Caliper EZ Reader II)
# CONDITION LABEL: CDK9/cyclinT1 8 nM, 180 min at 27° C.
pIC50: −log10 of the molar value.
# Lookup of reported pIC50 keyed by entry

Worked examples follow.
INSERT INTO measurements (compound, recorded_result) VALUES
  ('FC(F)(F)c1cnc(NC2CCCNCC2)nc1-c1c[nH]c2nc(N3CCOCC3)ccc12 (single isomer, unassigned) [Compound 49]', '< 4.30'),
  ('CP(C)(=O)c1cccc2c(-c3nc(NC4CC45CCNC5)ncc3C(F)(F)F)c[nH]c12 (single isomer, unassigned) [Compound 111]', '< 4.30');

# next compound below
Problem: What does the data say about its pIC50? Entry: CP(C)(=O)c1cccc2c(-c3nc(N[C@@H]4CC[C@H]4O)ncc3C(F)(F)F)c[nH]c12
Result: < 4.30

----------
# Lookup of reported IC50 keyed by entry
# TEST TARGET: CDK2/cyclinE1 complex (Homo sapiens, UniProt P24941)
# METHOD DESCRIPTION: In-vitro enzymatic inhibitory activity testing, CDK2 inhibition assay (Caliper EZ Reader II)
# Format: biochemical
# CONDITION LABEL: CDK2/cyclinE1 0.5 nM, 180 min at 27° C.

INSERT INTO results (compound, test_target, measure, recorded_result) VALUES
  ('CC1(C)COC[C@@H](Nc2ncc(C(F)(F)F)c(-c3c[nH]c4nc(C#N)ccc34)n2)CN1 (single isomer, unassigned) [Compound 64]', 'CDK2/cyclinE1 complex (Homo sapiens, UniProt P24941)', 'IC50', '> 50 µM');

Problem: What does the data say about its IC50? Entry: C[C@@H](O)CNc1ncc(C(F)(F)F)c(-c2c[nH]c3c(P(C)(C)=O)cccc23)n1 [Compound 172]
Result: 0.2 to 5 µM

Problem: What does the data say about its IC50? Entry: FC(F)(F)c1cnc(NCC2CCNC2)nc1-c1c[nH]c2nc(N3CCOCC3)ccc12 (stereo not drawn) [Compound 52]
Result: 5 to 50 µM

----------
# TEST TARGET: CDK9/cyclinT1 complex (Homo sapiens)
# METHOD DESCRIPTION: In-vitro enzymatic inhibitory activity testing, CDK9 inhibition assay (Caliper EZ Reader II)
# CONDITION LABEL: CDK9/cyclinT1 8 nM, 180 min at 27° C.
# Procedure: CDK12/CyclinK was diluted in an assay buffer (80 mM MES PH 6.5, 0.01% Tween 20, 50 ug/mL BSA, 10 mM MgCl2) to afford a corresponding enzyme solution with the 2.4 concentration. […] A reaction mixture was analyzed on Caliper EZ Reader II by electrophoretic separation of a fluorogenic substrate and a phosphorylated product. Data were calculated by using GraphPad Prism version 6.0, and IC50 values were adjusted and obtained by using a nonlinear regression model of a dose response curve.
pIC50: −log10 of the molar value.
# Lookup of reported pIC50 keyed by entry

INSERT INTO measurements (compound, measure, recorded_result) VALUES
  ('CP(C)(=O)c1cccc2c(-c3nc(N[C@H]4CC[C@@H]4O)ncc3C(F)(F)F)c[nH]c12 [Compound 154]', 'pIC50', '4.30 to 5.30'),
  ('C[C@@H](O)CNc1ncc(C(F)(F)F)c(-c2c[nH]c3c(P(C)(C)=O)cccc23)n1 [Compound 172]', 'pIC50', '< 4.30'),
  ('CP(C)(=O)c1cccc2c(-c3nc(NCC(O)C4CCC4)ncc3C(F)(F)F)c[nH]c12 (single isomer, unassigned) [Compound 139]', 'pIC50', '< 4.30'),
  ('C[C@@H]1C[C@H](Nc2ncc(C(F)(F)F)c(-c3c[nH]c4nc(N5CCOCC5)ccc34)n2)CCN1 [Compound 54]', 'pIC50', '< 4.30'),
  ('CP(C)(=O)c1cccc2c(-c3nc(NCC(O)C(F)(F)F)ncc3C(F)(F)F)c[nH]c12 (single isomer, unassigned) [Compound 147]', 'pIC50', '< 4.30');

Problem: What does the data say about its pIC50? Entry: FC(F)(F)c1cnc(NC2CCC3(CCNC3)C2)nc1-c1c[nH]c2nc(N3CCOCC3)ccc12 (stereo not shown) [Compound 40]
Result: 4.30 to 5.30

Problem: What does the data say about its pIC50? Entry: CP(C)(=O)c1cccc2c(-c3nc(NCC4(O)CCOCC4)ncc3C(F)(F)F)c[nH]c12 [Compound 175]
Result: < 4.30

----------
# TEST TARGET: CDK2/cyclinE1 complex (Homo sapiens)
# METHOD DESCRIPTION: In-vitro enzymatic inhibitory activity testing, CDK2 inhibition assay (Caliper EZ Reader II)
# CONDITION LABEL: CDK2/cyclinE1 0.5 nM, 180 min at 27° C.
# Lookup of reported IC50 keyed by entry

Worked examples follow.
INSERT INTO assay_data (compound, measure, recorded_result) VALUES
  ('CC(O)[C@H](C)Nc1ncc(C(F)(F)F)c(-c2c[nH]c3c(P(C)(C)=O)cccc23)n1 (mixture of isomers) [Compound 128]', 'IC50', '5 to 50 µM'),
  ('CN(C)CC1CCCC1Nc1ncc(C(F)(F)F)c(-c2c[nH]c3c(P(C)(C)=O)cccc23)n1 (single isomer, unassigned) [Compound 136]', 'IC50', '> 50 µM'),
  ('CP(C)(=O)c1cccc2c(-c3nc(NC4CC45CCNC5)ncc3C(F)(F)F)c[nH]c12 (single isomer, unassigned) [Compound 109]', 'IC50', '5 to 50 µM');

Problem: Observed IC50 on CDK2/cyclinE1 complex (Homo sapiens) for CP(C)(=O)c1cccc2c(-c3nc(NC[C@H](F)CO)ncc3C(F)(F)F)c[nH]c12 , please.
Result: 0.2 to 5 µM

Problem: Observed IC50 on CDK2/cyclinE1 complex (Homo sapiens) for CP(C)(=O)c1cccc2c(-c3nc(NCC4(O)CCOC4)ncc3C(F)(F)F)c[nH]c12 (single isomer, unassigned) [Compound 121] , please.
Result: 5 to 50 µM

Problem: Observed IC50 on CDK2/cyclinE1 complex (Homo sapiens) for CP(C)(=O)c1cccc2c(-c3nc(NCC(O)C(F)(F)F)ncc3C(F)(F)F)c[nH]c12 (single isomer, unassigned) [Compound 147] , please.
Result: > 50 µM

Problem: Observed IC50 on CDK2/cyclinE1 complex (Homo sapiens) for CP(C)(=O)c1cccc2c(-c3nc(NCC4CC(O)C4)ncc3C(F)(F)F)c[nH]c12 (stereo not shown) , please.
Result: 0.2 to 5 µM

Problem: Observed IC50 on CDK2/cyclinE1 complex (Homo sapiens) for FC(F)(F)c1cnc(N[C@@H]2CCC[C@@H]3CNC[C@@H]32)nc1-c1c[nH]c2nc(N3CCOCC3)ccc12 , please.
Result: 5 to 50 µM

Problem: Observed IC50 on CDK2/cyclinE1 complex (Homo sapiens) for CC(CO)CNc1ncc(C(F)(F)F)c(-c2c[nH]c3c(P(C)(C)=O)cccc23)n1 (single isomer, unassigned) [Compound 149] , please.
Result: 0.2 to 5 µM

Problem: Observed IC50 on CDK2/cyclinE1 complex (Homo sapiens) for FC(F)(F)c1cnc(NC2CCC3(CCNCC3)C2)nc1-c1c[nH]c2nc(N3CCOCC3)ccc12 (stereo not shown) , please.
Result: 5 to 50 µM

----------
# Lookup of reported IC50 keyed by entry
# System: ovarian cancer A2780
# METHOD DESCRIPTION: Cell biological activity detection (CyQuant, 72 hours), A2780
# Type: cell-based, human
# CONDITION LABEL: A2780 cells, incubation for 72 hours

INSERT INTO assay_data (compound, test_target, recorded_result) VALUES
  ('CP(C)(=O)c1cccc2c(-c3nc(NC4CC45CCNC5)ncc3C(F)(F)F)c[nH]c12 (single isomer, unassigned) [Compound 109]', 'ovarian cancer A2780', '20 to 200 nM');

Problem: What does the data say about its IC50? Entry: CC(O)[C@H](C)Nc1ncc(C(F)(F)F)c(-c2c[nH]c3c(P(C)(C)=O)cccc23)n1 (single isomer, unassigned) [Compound 130]
Result: 20 to 200 nM

Problem: What does the data say about its IC50? Entry: CC1(C)COCC(Nc2ncc(C(F)(F)F)c(-c3c[nH]c4c(P(C)(C)=O)cccc34)n2)CN1 (single isomer, unassigned) [Compound 92]
Result: < 20 nM

Problem: What does the data say about its IC50? Entry: CP(C)(=O)c1cccc2c(-c3nc(NC4CC45CCNC5)ncc3C(F)(F)F)c[nH]c12 (single isomer, unassigned) [Compound 110]
Result: < 20 nM

Problem: What does the data say about its IC50? Entry: CP(C)(=O)c1cccc2c(-c3nc(NC4CC45CCNC5)ncc3C(F)(F)F)c[nH]c12 (single isomer, unassigned) [Compound 111]
Result: < 20 nM

Problem: What does the data say about its IC50? Entry: CP(C)(=O)c1cccc2c(-c3nc(NCC4CC4CO)ncc3C(F)(F)F)c[nH]c12 (single isomer, unassigned) [Compound 144]
Result: 20 to 200 nM

Problem: What does the data say about its IC50? Entry: CC(CO)CNc1ncc(C(F)(F)F)c(-c2c[nH]c3c(P(C)(C)=O)cccc23)n1 (single isomer, unassigned) [Compound 150]
Result: 20 to 200 nM

Problem: What does the data say about its IC50? Entry: FC(F)(F)c1cnc(NC2CCCNCC2)nc1-c1c[nH]c2nc(N3CCOCC3)ccc12 (single isomer, unassigned) [Compound 49]
Result: 200 to 5000 nM
